target: G551D CFTR (Homo sapiens, UniProt P13569, G551D); experiment: TECC assay, FRT-CFTR G551D protocol; conditions: FRT cells stably transfected with G551D CFTR, high expression cells, increase in Isc after forskolin
Sequence (P13569 whole entry G551D): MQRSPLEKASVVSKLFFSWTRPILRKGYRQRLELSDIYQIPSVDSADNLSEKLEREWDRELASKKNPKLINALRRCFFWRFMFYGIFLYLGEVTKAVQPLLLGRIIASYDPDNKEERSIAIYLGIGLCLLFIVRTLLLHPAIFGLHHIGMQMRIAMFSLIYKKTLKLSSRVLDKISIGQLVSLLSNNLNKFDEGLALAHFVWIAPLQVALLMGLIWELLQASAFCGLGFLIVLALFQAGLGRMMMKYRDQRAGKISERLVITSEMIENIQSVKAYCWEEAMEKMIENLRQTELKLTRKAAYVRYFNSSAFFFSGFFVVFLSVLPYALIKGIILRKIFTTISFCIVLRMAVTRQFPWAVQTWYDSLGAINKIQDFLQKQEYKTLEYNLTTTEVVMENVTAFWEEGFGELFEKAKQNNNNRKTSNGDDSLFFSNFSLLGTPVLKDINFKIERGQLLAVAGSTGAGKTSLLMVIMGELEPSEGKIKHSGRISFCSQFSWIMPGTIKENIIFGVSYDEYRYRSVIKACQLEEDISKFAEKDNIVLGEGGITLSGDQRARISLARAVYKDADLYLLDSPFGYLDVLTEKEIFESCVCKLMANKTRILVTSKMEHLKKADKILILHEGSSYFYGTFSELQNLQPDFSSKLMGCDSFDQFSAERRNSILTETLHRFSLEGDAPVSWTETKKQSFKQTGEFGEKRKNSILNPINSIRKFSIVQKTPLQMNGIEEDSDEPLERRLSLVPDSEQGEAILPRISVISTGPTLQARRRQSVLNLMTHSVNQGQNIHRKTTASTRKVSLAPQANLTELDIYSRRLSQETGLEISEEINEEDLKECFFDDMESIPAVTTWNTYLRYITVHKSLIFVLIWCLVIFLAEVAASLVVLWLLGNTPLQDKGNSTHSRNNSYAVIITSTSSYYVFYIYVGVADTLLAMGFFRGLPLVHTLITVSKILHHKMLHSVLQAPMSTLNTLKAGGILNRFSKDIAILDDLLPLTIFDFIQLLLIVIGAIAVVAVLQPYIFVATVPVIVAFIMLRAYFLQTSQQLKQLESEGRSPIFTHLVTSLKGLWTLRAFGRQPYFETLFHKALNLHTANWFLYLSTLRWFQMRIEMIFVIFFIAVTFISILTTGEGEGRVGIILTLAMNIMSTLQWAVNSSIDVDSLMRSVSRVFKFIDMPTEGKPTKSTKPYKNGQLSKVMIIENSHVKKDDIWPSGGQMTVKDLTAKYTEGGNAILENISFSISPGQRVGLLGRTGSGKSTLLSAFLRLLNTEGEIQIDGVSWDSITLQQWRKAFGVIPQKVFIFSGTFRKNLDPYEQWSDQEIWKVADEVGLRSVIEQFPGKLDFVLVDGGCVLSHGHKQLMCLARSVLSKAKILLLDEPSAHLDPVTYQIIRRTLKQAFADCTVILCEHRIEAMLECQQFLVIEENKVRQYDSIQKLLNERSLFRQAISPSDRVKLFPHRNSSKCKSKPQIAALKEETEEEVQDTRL
pEC50: −log10 of the molar value.
VALUE_KIND: pEC50

>  <MOLECULE>
Nc1cc(S(=O)(=O)c2ccc(OC(F)(F)F)cc2)cnc1C(=O)NCC1(O)CC1

>  <pEC50>
6.17

$$$$
>  <MOLECULE>
Nc1cc(S(=O)(=O)c2ccc(OC(F)(F)F)cc2)cnc1C(=O)NCC(O)COCC1CC1 (stereo not shown)

>  <pEC50>
6.08

$$$$
>  <MOLECULE>
Nc1cc(S(=O)(=O)c2ccc(F)cc2)cnc1C(=O)NC[C@@H](O)C(F)(F)F

>  <pEC50>
6.13

$$$$

(I) COC[C@H](O)CNC(=O)c1ncc(S(=O)(=O)c2ccc(C(F)(F)F)cc2)cc1N
(II) C[C@H](O)CNC(=O)c1ncc(S(=O)(=O)c2ccc(OC(F)(F)F)cc2)cc1N
(III) CC(C)(O)C1CN(C(=O)c2ncc(S(=O)(=O)c3ccc(C(F)(F)F)cc3)cc2N)C1
(IV) CC(O)(CNC(=O)c1ncc(S(=O)(=O)c2ccc(F)cc2)cc1N)C(F)(F)F (stereo not shown)
Could you please order the items by pEC50, going from the lowest number to the highest? Output the labels ranked as instructed. IV, II, I, III

(1) Nc1cc(S(=O)(=O)c2ccc(OC(F)(F)F)cc2)cnc1C(=O)N[C@@H]1CCCC[C@H]1O (racemic)
(2) COCC(O)CNC(=O)c1ncc(S(=O)(=O)c2ccc(OC(F)(F)F)cc2)cc1N (stereo not shown)
(3) C[C@@H](O)CNC(=O)c1ncc(S(=O)(=O)c2ccc(OC(F)(F)F)cc2)cc1N
(4) Nc1cc(S(=O)(=O)c2ccc(OC(F)(F)F)cc2)cnc1C(=O)NCC(O)C(F)(F)F (stereo not shown)
Sort (4 molecules) by pEC50: min first. Output spec: a listing of the labels in the requested order. 3, 2, 1, 4

(1) CC(C)(CO)CNC(=O)c1ncc(S(=O)(=O)c2ccc(OC(F)(F)F)cc2)cc1N
(2) CC(CO)CNC(=O)c1ncc(S(=O)(=O)c2ccc(OC(F)(F)F)cc2)cc1N (stereo not shown)
Of 1 versus 2 , which is the one with smaller reported pEC50? Reply briefly: the label of your chosen item. 2

(A) Nc1cc(S(=O)(=O)c2ccc(F)cc2)cnc1C(=O)NC[C@H](O)C(F)(F)F
(B) CC(C)(O)CNC(=O)c1ncc(S(=O)(=O)c2ccc(OC(F)(F)F)cc2)cc1N
Please indicate which entry, A or B , has the lower recorded pEC50 value. Could you answer with the label of the item you picked? A

* * *

molecular target: CFTR G551D mutant (Homo sapiens, UniProt P13569, G551D); assay: YFP-halide influx assay for the CFTR-G551D mutation (HEK293 cells); conditions: forskolin 10.67 μM
Sequence (P13569 whole entry G551D): as above
pEC50: −log10 of the molar value.
VALUE_KIND: pEC50

(A) Nc1cc(S(=O)(=O)c2ccc(OC(F)(F)F)cc2)cnc1C(=O)N1CC(F)C1
(B) Nc1cc(S(=O)(=O)c2ccc(C(F)(F)F)cc2F)cnc1C(=O)NCC(O)COCC1CC1 (stereo not shown)
Param pair: A , B . Output: the one whose pEC50 is numerically greater. When you have decided, please share the label of that item. B
(B: 6.40, A: 5.80)
